system: Mycobacterium tuberculosis; test: Antimicrobial activity against Mycobacterium tuberculosis H37Rv ATCC 27294 harboring pFCA-lux AB gene measured under anaerobic condition after 11 days by luminescence analysis; format: functional; details: H37Rv ATCC 27294, 264 h
Metric: MIC (µM)
Numeric only. Scale: µM

Q) Reported MIC for O=C(Nc1ccc(-c2ccc(F)nc2)cc1)O[C@@H]1COc2nc([N+](=O)[O-])cn2C1 : what is it?
A) 4.3

Q) I would be grateful if you could share the reported MIC for O=[N+]([O-])c1cn2c(n1)OC[C@@H](OCc1ccccc1OC(F)(F)F)C2 .
A) 8.6

Q) Field request: MIC | item: O=C(COc1ccc(OC(F)(F)F)cc1)N[C@@H]1COc2nc([N+](=O)[O-])cn2C1
A) 10

Q) Reported MIC for O=C(Nc1ccc(-c2ccc(C(F)(F)F)nc2)cc1)O[C@@H]1COc2nc([N+](=O)[O-])cn2C1 : what is it?
A) 4.1

Q) Quick one: MIC of O=C(Cc1ccc(-c2ccc(OC(F)(F)F)cc2)cc1)N[C@@H]1COc2nc([N+](=O)[O-])cn2C1 ?
A) 5

Q) Query: MIC; subject: CN(C(=O)O[C@@H]1COc2nc([N+](=O)[O-])cn2C1)c1ccc(OC(F)(F)F)cc1
A) 5.4
